FYI, the data here is from the OPERA property sets (Mansouri et al. 2018).

Recorded logP by entry
EXPERIMENTAL_READOUT: logP

| CHEMICAL_STRUCTURE | RECORDED_VALUE |
| --- | --- |
| COc1c(OC)c(OC(C)=O)c2ccccc2c1OC(C)=O | 2.39 |
| COc1c(OC)c(OC(C)=O)c2cc(Cl)ccc2c1OC(C)=O | 3.26 |
| COc1ccc2c(OC(C)=O)c(OC)c(OC)c(OC(C)=O)c2c1 | 2.39 |
| COc1c(OC)c(OC(=O)C(C)C)c2ccccc2c1OC(=O)C(C)C | 4.61 |
| COc1c(OC)c(OC(C)=O)c2cc(C#N)ccc2c1OC(C)=O | 2.28 |
| COc1c(OC)c(OC(C)=O)c2cc(Br)ccc2c1OC(C)=O | 3.39 |
| COc1c(OC)c(OC(C)=O)c2cc(F)ccc2c1OC(C)=O | 2.75 |
| COc1c(OC)c(OC(C)=O)c2c(Cl)cccc2c1OC(C)=O | 3.16 |
| COc1c(OC)c(OC(=O)C(C)(C)C)c2ccccc2c1OC(=O)C(C)(C)C | 5.69 |
| COc1c(OC)c(OC(C)=O)c2cc(C)ccc2c1OC(C)=O | 2.86 |
| COc1c(OC)c(OC(C)=O)c2c(C#N)cccc2c1OC(C)=O | 2.51 |
| COc1c(OC)c(OC(C)=O)c2c(OC)cccc2c1OC(C)=O | 2.43 |
